Consider the following compounds; for each one, report its Inhibition.
tested on: Plasmodium falciparum; assay: GSK_TCMDC: Inhibition of Plasmodium falciparum 3D7 in whole red blood cells, using parasite LDH activity as an index of growth. Test compounds present at 2uM; format: functional
Give bare numbers, in %.

Here are 3 compounds together with their reported answers.
-- ask Given CC(C)c1ccc(N2CCN(CCCCNC(=O)c3ccc(NC(=O)c4cc(Cl)cc(Cl)c4)cc3)CC2)cc1 , state its recorded Inhibition.
-- reply 100

-- ask Given Cc1cnc(Nc2ccccc2)nc1NCCC(=O)Nc1ccccc1.O=C(O)C(F)(F)F , state its recorded Inhibition.
-- reply 89

-- ask Given Cc1cccc2nc(-c3ccc(-c4ccc(NC(=O)NCc5cccc(F)c5)cc4)cc3)[nH]c12 , state its recorded Inhibition.
-- reply 97

The following compounds each have a reported value; give each one's Inhibition.
1. Cc1cc(NCCC(=O)NCCOc2ccccc2)nc(Nc2ccccc2)n1.O=C(O)C(F)(F)F
2. COCCNC(=O)c1ccc(OC2CCN(CC(C)=Cc3ccccc3)CC2)c(Cl)c1
3. O=C(O)C(F)(F)F.c1ccc(CN2CCC(NCc3ccccc3-c3cccc(CNC4CCCC4)c3)CC2)cc1
4. CN1CCCC1CCNc1ncc2c(-c3ccc(NC(=O)Nc4cc(C(F)(F)F)ccc4F)cc3)nn(C)c2n1.O=C(O)C(F)(F)F (stereo not drawn)

-- reply
1. 94
2. 94
3. 100
4. 96

The following compounds each have a reported value; give each one's Inhibition.
1. Cc1cc(N)c2cc(NC(=O)/C=C/c3ccccc3)ccc2n1
2. CC1=C(C(=O)Nc2ccccc2)C(c2ccc([N+](=O)[O-])cc2)n2ncc(C(=O)Nc3ccccc3)c2N1 (stereo not drawn)
3. O=C(NCCNc1ccnc(Nc2ccc(F)cc2)n1)Nc1ccccc1F
4. COCCCNC(=N)c1ccc(NC(=O)c2ccc(C(=O)Nc3ccc(C(=N)NCCCOC)cc3)cc2)cc1.Cl
5. CC(C)c1ccc(CN2CCC(CNC(=O)c3cc(-c4cccc(F)c4)cs3)C2)cc1.O=C(O)C(F)(F)F (stereo not drawn)
6. CC(C)C(=O)NC(c1cccs1)c1cc(Cl)c2cccnc2c1O (stereo not drawn)
7. CC(=O)N(Cc1ccc(CC(C)NCCc2cccc(Cl)c2)cc1)Cc1ccc(CC(C)NCCc2cccc(Cl)c2)cc1 (stereo not drawn)
8. CNC(=O)c1ccccc1Nc1nc(Nc2ccc(CCN3CCN(C)CC3)cc2)ncc1Cl.Cl

-- reply
100
86
93
100
100
91
100
97

The following compounds each have a reported value; give each one's Inhibition.
1. COCCNCc1ccc(-c2ccc3c(Nc4ccc(F)cc4Cl)ccnc3c2)o1
2. Cl.c1ccc(C(c2cccs2)N2CCN(Cc3ccc(OCCCN4CCCCC4)cc3)CC2)cc1 (stereo not drawn)
3. Cc1cccc2nc(-c3cccc(-c4cccc(CN5CCCC5CN)c4)c3)[nH]c12.O=C(O)C(F)(F)F (stereo not drawn)

-- reply
1: 100; 2: 91; 3: 100

====

tested on: Plasmodium falciparum; test: GSK_TCMDC: Inhibition of Plasmodium falciparum Dd2 in whole red blood cells, using parasite LDH activity as an index of growth. Test compounds present at 2uM; assay type: functional
Cut-off 90% on Inhibition: below means rule met, at or above means rule not met.

Completed entries (count: 3):
-- ask Quick check: does CCc1nc(N)nc(N)c1-c1ccc2c(c1)CCCC2 have Inhibition under 90%?
-- reply rule met

-- ask Quick check: does O=C(Nc1ccc(N2CCN(Cc3ccccc3)CC2)cc1)c1cccs1.O=C(O)C(F)(F)F have Inhibition under 90%?
-- reply rule met

-- ask Quick check: does Cc1cccc(Nc2nc(N)c3ccccc3n2)c1.Cl have Inhibition under 90%?
-- reply rule met

Others:
-- ask Quick check: does CN1CCCC(CN2CCN(Cc3ccc(-c4ccc(-c5nc6ccccc6[nH]5)cc4)cc3)CC2)C1.O=C(O)C(F)(F)F (stereo unspecified) have Inhibition under 90%?
-- reply rule not met

-- ask Quick check: does CCSc1ccc(C)cc1CON1C(N)=NC(N)=NC1(C)C.Cl have Inhibition under 90%?
-- reply rule not met

-- ask Quick check: does Cc1nc(N)nc(N)c1OCCCCOc1ccccc1.Cl.O have Inhibition under 90%?
-- reply rule met

====

test system: Plasmodium falciparum; test: GSK_TCMDC: Inhibition of Plasmodium falciparum 3D7 in whole red blood cells, using parasite LDH activity as an index of growth. Test compounds present at 2uM; format: functional
OUTCOME_MEASURE: Inhibition
Quick note: unit goes after the number.

Here are 5 compounds together with their reported answers.
-- ask Checklist item: Inhibition tested on Plasmodium falciparum, entry Cc1ccc(Cc2cnc(CN3CCCCC3)c(O)c2)cc1.Cl , value?
-- reply 93%

-- ask Checklist item: Inhibition tested on Plasmodium falciparum, entry CCOC(=O)C(C#N)NC(=O)C=Cc1ccccc1 (centres undefined) , value?
-- reply 96%

-- ask Checklist item: Inhibition tested on Plasmodium falciparum, entry COc1cc(F)c2ncc(F)c(CCN3C[C@H](CNCc4ccc5c(n4)NC(=O)CS5)[C@H](O)C3)c2c1.Cl , value?
-- reply 91%

-- ask Checklist item: Inhibition tested on Plasmodium falciparum, entry CN(C(=O)c1nn(-c2ccccn2)c2nccc(-c3cccs3)c12)C1CCCCC1 , value?
-- reply 87%

-- ask Checklist item: Inhibition tested on Plasmodium falciparum, entry Cc1nn(-c2cccc(Cl)c2)c2c1C(C(=O)c1ccc3c(c1)OCO3)CC(=O)N2 (centres undefined) , value?
-- reply 98%

The following compounds each have a reported value; give each one's Inhibition.
1. CC(C)(C)c1cc2cc(Nc3ccnc4cc(-c5nccs5)ccc34)ccc2[nH]1.Cl
2. COc1ccc(-c2ccc(NC(=O)c3cccc(Cl)c3)cc2)cc1CNC(C)C.O=C(O)C(F)(F)F
3. CCC(C)(C)n1c(C)cc2c3c(N)nc(N)nc3ccc21
4. CCS[C@@H]1O[C@H](COC(=O)c2ccccc2)[C@H](OC(=O)c2ccccc2)[C@H](OC(=O)c2ccccc2)[C@H]1OC(=O)c1ccccc1

-- reply
1: 100%; 2: 100%; 3: 97%; 4: 98%

====

tested on: HepG2; assay: GSK_TCMDC: Percent inhibition of human HepG2 cell line. Test compounds present at 10uM.; assay type: functional
Cut-off 30% on Inhibition: below means Condition met, at or above means Condition not met.

Completed entries (count: 4):
-- ask Quick check: does Cc1ccc2c(=NN=CC=Cc3ccccc3)cc(C)[nH]c2c1 have Inhibition under 30%?
-- reply Condition met

-- ask Quick check: does Cc1cccc(Cn2c(C(N)=O)nn(-c3ccc([N+](=O)[O-])cc3C#N)c2=S)c1 have Inhibition under 30%?
-- reply Condition met

-- ask Quick check: does CC1(C)N=C(NC(=O)Nc2ccc([N+](=O)[O-])cc2)N=C(N)N1OCc1cccc2ccccc12 have Inhibition under 30%?
-- reply Condition not met

-- ask Quick check: does CNCc1ccc(-c2ccc3ccnc(N)c3c2)cc1 have Inhibition under 30%?
-- reply Condition not met

Others:
-- ask Quick check: does C=CCn1c(Sc2ccc(C#N)c([N+](=O)[O-])c2)nnc1-c1cccc(Cl)c1 have Inhibition under 30%?
-- reply Condition not met

-- ask Quick check: does C=CCc1ccc(C2CCN(CCCCNC(=O)c3ccc(NC(=O)c4ccc(Cl)cc4)cc3)CC2)cc1 have Inhibition under 30%?
-- reply Condition met

-- ask Quick check: does COc1ccc(CCNC(C)Cc2ccc(C(=O)Nc3ccc(CC(C)NCCc4cccc(Cl)c4)cc3)cc2)cc1 (stereo unspecified) have Inhibition under 30%?
-- reply Condition not met

-- ask Quick check: does COc1ccc(-c2cc3nc4c(c(NCCCn5ccnc5)n3n2)CCCC4)cc1 have Inhibition under 30%?
-- reply Condition met

-- ask Quick check: does CCCC1(NC[C@@H](O)[C@H](Cc2ccccc2)NC(=O)c2cc(NCC)cc(N3CCCCS3(=O)=O)c2)CCC1.Cl have Inhibition under 30%?
-- reply Condition met

====

test system: Plasmodium falciparum; assay: GSK_TCMDC: Inhibition of Plasmodium falciparum Dd2 in whole red blood cells, using parasite LDH activity as an index of growth. Test compounds present at 2uM; assay type: functional
Consider the following compounds; for each one, report its Inhibition.
Quick note: unit goes after the number.

-- ask Given CN(C(=O)/C=C/c1cc(C(F)(F)F)ccc1F)C1CCN(CCCCCNC(=O)/C=C/c2ccc(Cl)c(Cl)c2)C1 (centres undefined) , state its recorded Inhibition.
-- reply 1%

-- ask Given COc1ccccc1CNC(=O)c1ccc(N2CCN(c3ccncc3)CC2)cn1.O=C(O)C(F)(F)F , state its recorded Inhibition.
-- reply 17%

The following compounds each have a reported value; give each one's Inhibition.
1. O=C(C=Cc1ccc(Cl)c(Cl)c1)NCCCCCN1CCC(CCNS(=O)(=O)c2ccc(Br)cc2)CC1
2. Cc1cccc2nc(-c3cccc(-c4cccc(CN5CCCC5CN)c4)c3)[nH]c12.O=C(O)C(F)(F)F (centres undefined)

-- reply
1. 0%
2. 72%

====

system: HepG2; assay: GSK_TCMDC: Percent inhibition of human HepG2 cell line. Test compounds present at 10uM.; type: functional
Consider the following compounds; for each one, report its Inhibition.
Give bare numbers, in %.

-- ask Given CN(C)c1ccc(-c2csc(C(=O)NC3CCN(Cc4ccc(C(C)(C)C)cc4)C3)c2)cc1.O=C(O)C(F)(F)F (stereo not given) , state its recorded Inhibition.
-- reply 26

The following compounds each have a reported value; give each one's Inhibition.
1. CCOc1ccc(N(CC)S(=O)(=O)c2cc(Br)cc3c2N(C(=O)C2CC2)CC3)cc1
2. Brc1cc2c(cc1C=NNc1nc(=Nc3ccccc3)[nH]c(=Nc3ccccc3)[nH]1)OCO2
3. CCCCCN1CCCCC(NS(=O)(=O)c2ccc(C(=O)Nc3cccc(C(F)(F)F)c3)cc2)C1.O=C(O)C(F)(F)F (stereo not given)

-- reply
1. 0
2. 0
3. 14

-- ask Given O=C(NC1CCN(CC2(c3ccccc3)CCCC2)CC1)c1n[nH]cc1Cl , state its recorded Inhibition.
-- reply 0
